Hi there, I'd appreciate the recorded IC50 for every entry that follows.
System: T47D (PI3Kα-H1047R) cell line
Assay: HTRF phospho-AKT(S473) cell assay in T47D cells
Type: cell-based, human
Details: Homo sapiens; HTRF phospho-AKT(S473), T47D (PI3Kα-H1047R) cells, 2 hours compound incubation

Incoming: I am curious: what IC50 value has been reported for `Cc1cc([C@@H](C)Nc2ccc(Cl)nc2C(=O)NS(C)(=O)=O)c2nc(N3CCC(c4nccc(C)n4)CC3)n(C)c(=O)c2c1` ?
Outgoing: < 0.25 µM

Incoming: I am curious: what IC50 value has been reported for `Cc1cc([C@@H](C)Nc2ccc(Cl)nc2C(=O)NS(C)(=O)=O)c2nc(N3Cc4cn(-c5ncccc5C)nc4C3)n(C)c(=O)c2c1` ?
Outgoing: 0.25 to 0.5 µM

Incoming: I am curious: what IC50 value has been reported for `Cc1cc([C@@H](C)Nc2ccc(Cl)nc2C(=O)NS(C)(=O)=O)c2nc(N3CCN(c4ccnc(C(F)F)n4)CC3)n(C)c(=O)c2c1` ?
Outgoing: < 0.25 µM

Incoming: I am curious: what IC50 value has been reported for `Cc1cc([C@@H](C)Nc2ccc(Cl)nc2C(=O)NS(C)(=O)=O)c2nc(N3C[C@H]4C[C@@H]3CN4c3ncc(F)cn3)n(C)c(=O)c2c1` ?
Outgoing: 0.25 to 0.5 µM

Incoming: I am curious: what IC50 value has been reported for `Cc1cc([C@@H](C)Nc2ccc(Cl)nc2C(=O)NS(C)(=O)=O)c2nc(N3CCN(c4nc(C)ncc4Cl)CC3)n(C)c(=O)c2c1` ?
Outgoing: 0.25 to 0.5 µM

Incoming: I am curious: what IC50 value has been reported for `Cc1cc([C@@H](C)Nc2ccc(Cl)nc2C(=O)NS(C)(=O)=O)c2nc(N3C[C@@H]4[C@H](C3)[C@H]4c3nn(C4CC4)cc3F)n(C)c(=O)c2c1` ?
Outgoing: 0.25 to 0.5 µM

----------
Hi there, I'd appreciate the recorded pIC50 for every entry that follows.
Tested on: SKBR3 (PI3Kα-Wild Type) cell line
Assay: HTRF phospho-AKT(S473) cell assay in SKBR3 cells
Format: cell-based, human
Details: Homo sapiens, SK-BR-3; SKBR3 (PI3Kα-Wild Type) cells, HTRF phospho-AKT(S473), 2 hours compound incubation, PDGF-BB stimulated
pIC50: −log10 of the molar value.

Incoming: Param readout = pIC50; param system = SKBR3 (PI3Kα-Wild Type) cell line; param query = Cc1cc([C@@H](C)Nc2ccc(Cl)nc2C(=O)NS(C)(=O)=O)c2nc(N3CCN(c4ccn(C)n4)[C@H](C)C3)n(C)c(=O)c2c1 [Compound 256] ; response: value
Outgoing: 5.30 to 6.00

Incoming: Param readout = pIC50; param system = SKBR3 (PI3Kα-Wild Type) cell line; param query = Cc1cc([C@@H](C)Nc2ccc(Cl)nc2C(=O)NS(C)(=O)=O)c2nc(N(C)C34CC(C3)C4)n(C)c(=O)c2c1 [Compound 13] ; response: value
Outgoing: 5.30 to 6.00

Incoming: Param readout = pIC50; param system = SKBR3 (PI3Kα-Wild Type) cell line; param query = Cc1cc([C@@H](C)Nc2ccc(Cl)nc2C(=O)NS(C)(=O)=O)c2nc(N3C[C@@H]4[C@H](C3)[C@H]4c3ccc(N(C)C)nc3)n(C)c(=O)c2c1 [Compound 393] ; response: value
Outgoing: ≤ 5.30

Incoming: Param readout = pIC50; param system = SKBR3 (PI3Kα-Wild Type) cell line; param query = Cc1cc([C@@H](C)Nc2ccc(Cl)nc2C(=O)NS(C)(=O)=O)c2nc(N3CCC(c4ccn(-c5cccnc5)n4)CC3)n(C)c(=O)c2c1 [Compound 312] ; response: value
Outgoing: 5.30 to 6.00

Incoming: Param readout = pIC50; param system = SKBR3 (PI3Kα-Wild Type) cell line; param query = COc1cncc(C2CCN(c3nc4c([C@@H](C)Nc5ccc(Cl)nc5C(=O)NS(C)(=O)=O)cc(C)cc4c(=O)n3C)CC2)n1 [Compound 400] ; response: value
Outgoing: 5.30 to 6.00

Incoming: Param readout = pIC50; param system = SKBR3 (PI3Kα-Wild Type) cell line; param query = Cc1cc([C@@H](C)Nc2ccc(Cl)nc2C(=O)NS(C)(=O)=O)c2nc(N3Cc4cnn(C5(C(F)(F)F)CC5)c4C3)n(C)c(=O)c2c1 [Compound 179] ; response: value
Outgoing: 5.30 to 6.00

----------
Hi there, I'd appreciate the recorded pIC50 for every entry that follows.
Tested on: T47D (PI3Kα-H1047R) cell line
Assay: HTRF phospho-AKT(S473) cell assay in T47D cells
Format: cell-based, human
Details: Homo sapiens; HTRF phospho-AKT(S473), T47D (PI3Kα-H1047R) cells, 2 hours compound incubation
pIC50: −log10 of the molar value.

Incoming: I am curious: what pIC50 value has been reported for `Cc1cc([C@@H](C)Nc2ccc(Cl)nc2C(=O)NS(C)(=O)=O)c2nc(N3CCC(n4ncc5ccccc54)CC3)n(C)c(=O)c2c1` ?
Outgoing: 6.30 to 6.60

Incoming: I am curious: what pIC50 value has been reported for `COc1cc(N2C[C@@H]3C[C@H]2CN3c2nc3c([C@@H](C)Nc4ccc(Cl)nc4C(=O)NS(C)(=O)=O)cc(C)cc3c(=O)n2C)ccn1` ?
Outgoing: 6.30 to 6.60

Incoming: I am curious: what pIC50 value has been reported for `Cc1cc([C@@H](C)Nc2ccc(Cl)nc2C(=O)NS(C)(=O)=O)c2nc(N3C[C@@H]4C[C@H]3CN4c3ncc(C#N)cc3F)n(C)c(=O)c2c1` ?
Outgoing: 6.30 to 6.60

----------
Test system: SKBR3 (PI3Kα-Wild Type) cell line
Assay: HTRF phospho-AKT(S473) cell assay in SKBR3 cells
Format: cell-based, human
Details: Homo sapiens, SK-BR-3; SKBR3 (PI3Kα-Wild Type) cells, HTRF phospho-AKT(S473), 2 hours compound incubation, PDGF-BB stimulated
pIC50: −log10 of the molar value.
Hi there, I'd appreciate the recorded pIC50 for every entry that follows.

Incoming: Param readout = pIC50; param system = SKBR3 (PI3Kα-Wild Type) cell line; param query = `Cc1cc([C@@H](C)Nc2ccccc2S(=O)(=O)NC(=O)C(F)F)c2nc(N3Cc4ccc(F)cc4C3)n(C)c(=O)c2c1` ; response: value
Outgoing: ≤ 5.30

Incoming: Param readout = pIC50; param system = SKBR3 (PI3Kα-Wild Type) cell line; param query = Cc1cc([C@@H](C)Nc2ccc(Cl)nc2C(=O)NS(C)(=O)=O)c2nc(N3CC[C@H](c4ccn(C)n4)CC3(C)C)n(C)c(=O)c2c1 (relative stereo) ; response: value
Outgoing: ≤ 5.30

Incoming: Param readout = pIC50; param system = SKBR3 (PI3Kα-Wild Type) cell line; param query = Cc1cc([C@@H](C)Nc2ccc(Cl)nc2C(=O)NS(C)(=O)=O)c2nc(N3CCC(F)(F)C[C@@H]3C)n(C)c(=O)c2c1 (mixture of isomers) [Compound 12] ; response: value
Outgoing: 5.30 to 6.00

Incoming: Param readout = pIC50; param system = SKBR3 (PI3Kα-Wild Type) cell line; param query = `Cc1cc([C@@H](C)Nc2ccc(Cl)nc2C(=O)NS(C)(=O)=O)c2nc(N3Cc4cn(-c5ccc(C#N)cc5)nc4C3)n(C)c(=O)c2c1` ; response: value
Outgoing: 5.30 to 6.00

Incoming: Param readout = pIC50; param system = SKBR3 (PI3Kα-Wild Type) cell line; param query = `Cc1cc([C@@H](C)Nc2ccc(Cl)nc2C(=O)NS(C)(=O)=O)c2nc(N3CC[C@@H](Oc4cc[nH]n4)C3)n(C)c(=O)c2c1` ; response: value
Outgoing: 5.30 to 6.00

Incoming: Param readout = pIC50; param system = SKBR3 (PI3Kα-Wild Type) cell line; param query = `Cc1cc([C@@H](C)Nc2ccc(Cl)nc2C(=O)NS(C)(=O)=O)c2nc(N3Cc4nn(-c5ccccc5C)c(N)c4C3)n(C)c(=O)c2c1` ; response: value
Outgoing: ≤ 5.30

Incoming: Param readout = pIC50; param system = SKBR3 (PI3Kα-Wild Type) cell line; param query = `Cc1cc([C@@H](C)Nc2ccc(Cl)nc2C(=O)NS(C)(=O)=O)c2nc(N3CCC(C)(c4ccn(C)n4)CC3)n(C)c(=O)c2c1` ; response: value
Outgoing: ≤ 5.30

Incoming: Param readout = pIC50; param system = SKBR3 (PI3Kα-Wild Type) cell line; param query = Cc1cc([C@@H](C)Nc2ccc(Cl)nc2C(=O)NS(C)(=O)=O)c2nc([C@@H]3CCCN(c4ccccn4)C3)n(C)c(=O)c2c1 (relative stereo) ; response: value
Outgoing: 5.30 to 6.00

Incoming: Param readout = pIC50; param system = SKBR3 (PI3Kα-Wild Type) cell line; param query = `Cc1cc([C@@H](C)Nc2ccc(Cl)nc2S(=O)(=O)NC(=O)C2CC2)c2nc(N3Cc4ccc(F)cc4C3)n(C)c(=O)c2c1` ; response: value
Outgoing: ≤ 5.30

Incoming: Param readout = pIC50; param system = SKBR3 (PI3Kα-Wild Type) cell line; param query = `Cc1cc([C@@H](C)Nc2ccc(Cl)nc2C(=O)NS(C)(=O)=O)c2nc(N3C[C@@H]4[C@H](C3)[C@H]4c3ccn(C)n3)n(C)c(=O)c2c1` ; response: value
Outgoing: 5.30 to 6.00

Incoming: Param readout = pIC50; param system = SKBR3 (PI3Kα-Wild Type) cell line; param query = `Cc1cc([C@@H](C)Nc2ccc(Cl)nc2C(=O)NS(C)(=O)=O)c2nc(OC3CCC3)n(C)c(=O)c2c1` ; response: value
Outgoing: 5.30 to 6.00

Incoming: Param readout = pIC50; param system = SKBR3 (PI3Kα-Wild Type) cell line; param query = `COc1ccn(C2CCN(c3nc4c([C@@H](C)Nc5ccc(Cl)nc5C(=O)NS(C)(=O)=O)cc(C)cc4c(=O)n3C)CC2)n1` ; response: value
Outgoing: 5.30 to 6.00
